Assay: in vitro
Type: cell-based, human
Conditions: human
Where no end group is shown, it is not given here.
QUANTITY: viability at 48 h, 25 μM

SUBSTANCE: FIGNLALSDLLAGVAYTANLLLKKRTLRKNDRKKR-NH2 [Sample 2]
RESULT: 13.8%

* * *

Tested on: human kidney cancer cell line (CAKI2)
Type: cell-based
Settings: human, 48 h, 12.5 μM
Where no end group is shown, it is not given here.
QUANTITY: Cell Viability (%)

SUBSTANCE: FIGNLALSDLLAGVAYTANLLLKKRTLRKNDRKKR-NH2 [Sample 2]
QUANTITY: Cell Viability (%)
RESULT: 9.2%
--
SUBSTANCE: LFRAEYFLVLAVLNSGTNPIIKKRTLRKNDRKKR-NH2 [Sample 7]
QUANTITY: Cell Viability (%)
RESULT: 98.9%
--
SUBSTANCE: WFLREGSMFVALSASVFSLLAIKKRTLRKNDRKKR-NH2 [Sample 3]
QUANTITY: Cell Viability (%)
RESULT: 68%
--
SUBSTANCE: VIIVLSVFIACWAPLFILLLLKKRTLRKNDRKKR-NH2 [Sample 6]
QUANTITY: Cell Viability (%)
RESULT: 69.3%
--
SUBSTANCE: FLLISACWVISLILGGLPIMGWKKRTLRKNDRKKR-NH2 [Sample 4]
QUANTITY: Cell Viability (%)
RESULT: 70.6%
